system: TYKNU; assay: fractional viability relative to vehicle; TYKNU is a high-grade serous ovarian cancer line; higher = less growth inhibition; conditions: 2uM; 72 h; genotype: DNM1L knockout (sgDNM1L #1)
Structures can show the parent of a compound that is named as a salt. In all, about 2,000 compounds were measured (“fractional viability relative to vehicle”: median about 0.91, lowest 2% from about 0.045 on). This is one part of a sample in which the lowest values are shown more often than they occur.
READOUT: fractional viability
Hey, just send me the number, nothing else.

MOLECULE: COc1cc(/C=C/C(=O)N2CCN(CC(=O)N3CCCC3)CC2)cc(OC)c1OC [Cinepazide maleate]
fractional viability: 1.08
--
MOLECULE: COc1cc(/C=C/C(=O)N2CCC=CC2=O)cc(OC)c1OC [Piperlongumine]
fractional viability: 0.302
--
MOLECULE: C[C@@H]1COCCN1c1cc(C2([S@](C)(=N)=O)CC2)nc(-c2cc[nH]c3nccc2-3)n1
fractional viability: 0.189

Next:
Inquiry: Find fractional viability (TYKNU) for the entry COc1ccc(/C=C\c2cc(OC)c(OC)c(OC)c2)cc1O [Combretastatin A4]
Reply text: 0.11
